Data origin: PubChem BioAssay (NCI)

measurement.description: NCI Yeast Anticancer Drug Screen. Data for the mlh1 rad18 strain (AID 175)
experimental.parameters: S. cerevisiae mlh1 rad18 strain growth inhibition; at 50.0 µM; hits give high values
The panel holds about 79,000 compounds, 15% with a hit somewhere; the sample as a whole holds those more often. The source made the active and inactive calls. No stated cut-off is given here; in the data, active means growth inhibition above about 70%; inactive means the rest.
Parameter: growth inhibition. Scope: all listed entries.

Record excerpt, results attached:
O=C(O)COc1nc(Cl)c(Cl)cc1Cl	1.15% (inactive)
CCC[CH2][Sn]1([CH2]CCC)[O]C2C(O)OC(CO)C(O)C2[O]1 (stereo not drawn)	98.6% (active)

Shift focus to the following entry.
q: Param item = CCCCCCNC(=O)C(C)Br (stereo not drawn) ; retrieve measured growth inhibition.
a: 1.85% (inactive)

----------
measurement.description: NCI Yeast Anticancer Drug Screen. Data for the bub3 strain (AID 167)
experimental.parameters: S. cerevisiae bub3 mutant strain, at 50.0 µM, hits give high values
Compounds without any hit were thinned out: in the full panel of roughly 79,000, 15% have a hit.
Parameter: growth inhibition. Scope: all listed entries.
Unit % implied. Number only.

Record excerpt, results attached:
CN(C)C(=S)Oc1c(Cl)cc(S(=O)(=O)F)cc1Cl	-6.5
CC(C)(C)c1ccc(OP(=O)(Oc2ccccc2)Oc2ccccc2)cc1	24.1
O=C(Nc1cccc(F)c1)c1c(O)[nH]c(=S)[nH]c1=O	21.3
CO[C](=[W])c1ccccc1.[C-]#[O+].[C-]#[O+].[C-]#[O+].[C-]#[O+].[C-]#[O+]	1.05
CC(C)Oc1ccccc1OC(=O)N(C)C=O	-17.3

q: Param item = COC(=O)C(N)Cc1ccc(OC)c(N(CCCl)CCCl)c1 (stereo not drawn) ; retrieve measured growth inhibition.
a: 3

q: Param item = O=C(NCCc1ccc([N+](=O)[O-])cc1)c1ccc(S(=O)(=O)F)cc1 ; retrieve measured growth inhibition.
a: 19.4

q: Param item = CC(=O)[CH-]C(C)=O.CC(=O)[CH-]C(C)=O.CC(=O)[CH-]C(C)=O.[Ga+3] ; retrieve measured growth inhibition.
a: 31.1

q: Param item = Nc1ccccc1C(=O)c1ccccc1 ; retrieve measured growth inhibition.
a: 47.2

q: Param item = COC(=O)/C=C/[C@@H]1[C@H](C)N1S(=O)(=O)c1ccc(C)cc1 (stereo partly drawn) ; retrieve measured growth inhibition.
a: 13.9

q: Param item = O=C(Nc1cc(S(=O)(=O)F)ccc1Cl)Oc1ccc([N+](=O)[O-])cc1 ; retrieve measured growth inhibition.
a: 20.1

q: Param item = CC(C)NCC(=O)c1ccc(O)c(O)c1 ; retrieve measured growth inhibition.
a: -26.1

q: Param item = C1CC[N-]CC1.CC(=N\O)/C(C)=N/O.CC(=N\O)/C(C)=N/O.[CH2-]Cl.[Co+2] ; retrieve measured growth inhibition.
a: 20.1

----------
measurement.description: NCI Yeast Anticancer Drug Screen. Data for the cln2 rad14 strain (AID 165);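 further: 0% = growth equal to vehicle treated cultures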
experimental.parameters: S. cerevisiae cln2 rad14 strain, at 50.0 µM, hits give high values
Compounds without any hit were thinned out: in the full panel of roughly 79,000, 15% have a hit.
# binarize growth inhibition: threshold 20% inclusive, high side class 1, low side class 0

Below, 3 compounds whose answers are already recorded.
CC([NH-])C[NH-].[NH2-].[NH2-].[Pt+4] (configuration not stated)	class 0
COc1ccc2c(c1O)C13CCN(C)C(C2)C1CCC(O)C3 (configuration not stated)	class 0
CC[n+]1c(C)n(-c2ccccc2)c(=O)c2ccccc21	class 0

q: // inclusive: growth inhibition at least 20%? input: O=NNc1ccc2ccccc2n1
a: class 0
